pIC50 overview
Tested on: L. braziliensis UA847 amastigotes
Assay: Anti-amastigote activity in infected PEM, L. braziliensis UA847
Type: cell-based
Conditions: Leishmania braziliensis, 72 h, 3 days, Giemsa, read-out: Anti-amastigote activity IC50, L. baziliensis UA847
pIC50: −log10 of the molar value.
Measurement Kind: pIC50

• CCCCCCCCCCCCCCCCOP(=O)([O-])OCC[N+](C)(C)C [Miltefosine, reference compound] = 4.89
• O=c1cc(-c2ccc(OCCN3CCN(Cc4ccncc4)CC3)cc2)oc2ccccc12 [FM01] = 5.08
• N=C(N)c1ccc(OCCCCCOc2ccc(C(=N)N)cc2)cc1 [Pentamidine] = 5.96
• O=c1cc(-c2ccc(OCCOCCN(Cc3ccccn3)Cc3ccccn3)cc2)oc2ccccc12 [FM09] = 6.22
